System: HER3-ss+4aa/Gaussia Luciferase
Experiment: Dox-Induced Her3-ss-Gluc Assay
Type: cell-based
Settings: 24 hr doxycycline induction, 293FRT/TO cells, Gaussia luciferase signal; read-out: 24 hr Dox Inducible Her3(ss + 4)Gluc 293FRT/TO: Mean IC50
Below is a list of entries, each paired with its recorded IC50 value.

Solved entries:
CC(=O)N1CCC(Cn2cccc2C(=O)Nc2nc(C(C)(C)OC(C)C)cs2)CC1 [Compound A128]	> 25 µM
O=C(Nc1nc2nccnc2s1)c1cccn1Cc1ccncc1 [Compound A115]	> 25 µM

Ask: Give the measured IC50 for CC(C)OC(C)(C)c1csc(NC(=O)c2ccc(C(N)=O)n2Cc2ccncc2)n1 [Compound A105]
Reply: > 25 µM

Cited source for all entries: patent US20220153732A1
